Target: T1, FX activation peptide 12-mer ADLDPTENPFDL (human)
T1 peptide: ADLDPTENPFDL-biotin
Assay: peptide ELISA
Ends that are not written are not given here.
Exam item: assign MET to entries whose ELISA signal relative to background is below 1 and NOT MET to entries at or above 1. Note that a value of exactly 1 receives NOT MET.

{"binder": "Nb 701C06 (VHH, monovalent Nanobody; not shown: C-terminal FLAG3 and HIS6 tag) VHH: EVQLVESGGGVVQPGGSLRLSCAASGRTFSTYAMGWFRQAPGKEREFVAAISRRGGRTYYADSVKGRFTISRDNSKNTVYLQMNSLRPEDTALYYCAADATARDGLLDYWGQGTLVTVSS", "assigned_label": "MET"}
{"binder": "Nb 729C08 (VHH, monovalent Nanobody; also called Nb 729008; not shown: C-terminal FLAG3 and HIS6 tag) VHH: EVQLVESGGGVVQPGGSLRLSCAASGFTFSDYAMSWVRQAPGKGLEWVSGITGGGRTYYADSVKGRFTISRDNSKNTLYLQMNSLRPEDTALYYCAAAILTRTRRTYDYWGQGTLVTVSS", "assigned_label": "NOT MET"}
{"binder": "Nb 701D07 (VHH, monovalent Nanobody; not shown: C-terminal FLAG3 and HIS6 tag) VHH: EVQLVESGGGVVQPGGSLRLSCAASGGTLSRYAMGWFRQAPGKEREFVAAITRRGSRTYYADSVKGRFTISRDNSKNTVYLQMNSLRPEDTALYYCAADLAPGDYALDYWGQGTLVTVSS", "assigned_label": "MET"}
{"binder": "Nb 501A02 (VHH, monovalent control Nanobody; also called control Nanobody; not shown: C-terminal FLAG3 and HIS6 tag) VHH: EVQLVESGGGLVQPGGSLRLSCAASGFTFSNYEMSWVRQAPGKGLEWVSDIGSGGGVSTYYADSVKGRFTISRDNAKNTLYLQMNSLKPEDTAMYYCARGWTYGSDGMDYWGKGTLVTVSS", "assigned_label": "MET"}
{"binder": "Nb 702C12 (VHH, monovalent Nanobody; not shown: C-terminal FLAG3 and HIS6 tag) VHH: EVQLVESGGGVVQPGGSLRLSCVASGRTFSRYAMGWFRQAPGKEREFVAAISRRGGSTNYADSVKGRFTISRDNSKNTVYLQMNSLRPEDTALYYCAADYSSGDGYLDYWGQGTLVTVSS", "assigned_label": "MET"}
{"binder": "Nb 730C03 (VHH, monovalent Nanobody; also called Nb 730003; not shown: C-terminal FLAG3 and HIS6 tag) VHH: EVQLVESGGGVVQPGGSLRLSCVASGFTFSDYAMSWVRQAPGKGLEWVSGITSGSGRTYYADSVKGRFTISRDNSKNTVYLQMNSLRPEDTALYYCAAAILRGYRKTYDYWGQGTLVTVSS", "assigned_label": "NOT MET"}
{"binder": "Nb 701B09 (VHH, monovalent Nanobody; also called Nb 701609; not shown: C-terminal FLAG3 and HIS6 tag) VHH: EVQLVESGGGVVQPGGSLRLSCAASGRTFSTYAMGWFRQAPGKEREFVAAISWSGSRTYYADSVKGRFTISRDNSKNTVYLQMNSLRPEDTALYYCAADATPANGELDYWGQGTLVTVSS", "assigned_label": "MET"}
{"binder": "Nb 721E08 (VHH, monovalent Nanobody; not shown: C-terminal FLAG3 and HIS6 tag) VHH: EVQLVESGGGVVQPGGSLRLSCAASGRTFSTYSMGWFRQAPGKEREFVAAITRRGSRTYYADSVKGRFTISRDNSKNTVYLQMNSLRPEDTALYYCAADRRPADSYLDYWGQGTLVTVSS", "assigned_label": "NOT MET"}
